Experiment: refractive index (Na D-line) (dimensionless)
Conditions: 323.15 K; 101.33 kPa; Liquid; Standard Abbe refractometry
Value Kind: refractive index
Kindly provide the number alone.

Ask | Consider the compound CC(C)C[P+](C)(CC(C)C)CC(C)C.Cc1ccc(S(=O)(=O)[O-])cc1 [triisobutylmethylphosphonium p-toluenesulfonate] and give its recorded refractive index.
Reply | 1.5144

Ask | Recall and state the measured refractive index for CCn1cc[n+](C)c1.COS(=O)(=O)[O-] [1-ethyl-3-methylimidazolium methylsulfate] .
Reply | 1.4706

Ask | Give the reported refractive index for this compound. CCCCn1cc[n+](C)c1.F[P-](F)(F)(F)(F)F [1-butyl-3-methylimidazolium hexafluorophosphate]
Reply | 1.4058

Ask | Quote refractive index reported for COS(=O)(=O)[O-].Cn1cc[n+](C)c1 [1,3-dimethylimidazolium methylsulfate] please.
Reply | 1.4785

Ask | Please list refractive index recorded for the compound CCCCCCCC[n+]1ccn(C)c1.F[P-](F)(F)(F)(F)F [1-octyl-3-methylimidazolium hexafluorophosphate]
Reply | 1.4186

Ask | For the compound CCCC[n+]1ccc(C)cc1.F[B-](F)(F)F [1-butyl-4-methylpyridinium tetrafluoroborate] , report refractive index.
Reply | 1.4475

Ask | Annotate the compound CCCCCCCC[n+]1ccn(C)c1.[Cl-] [1-methyl-3-octylimidazolium chloride] with its measured refractive index.
Reply | 1.5048

Ask | Please report refractive index for the following compound: CCCCn1cc[n+](C)c1.O=S(=O)([O-])O [1-butyl-3-methylimidazolium hydrogen sulfate]
Reply | 1.4813

Ask | Let me know recorded refractive index for CCCCCCn1cc[n+](C)c1.F[P-](F)(F)(F)(F)F [1-hexyl-3-methylimidazolium hexafluorophosphate] , thanks.
Reply | 1.4104

* * *

Conditions: 323.15 K, Ring tensiometer
Consider the following compounds; for each one, report its surface tension liquid-gas.
// note: answer is a bare numeric in mN/m

Ask | Indicate its recorded surface tension liquid-gas; the compound in question is CCCCCCCC[n+]1ccn(C)c1.F[P-](F)(F)(F)(F)F [1-octyl-3-methylimidazolium hexafluorophosphate]
Reply | 34.9

Ask | Specify reported surface tension liquid-gas for the compound shown: CCCCn1cc[n+](C)c1.F[P-](F)(F)(F)(F)F [1-butyl-3-methylimidazolium hexafluorophosphate]
Reply | 41.2

Ask | Please report surface tension liquid-gas for the following compound: CCn1cc[n+](C)c1.COS(=O)(=O)[O-] [1-ethyl-3-methylimidazolium methylsulfate]
Reply | 38.4

Ask | Report surface tension liquid-gas, nothing else, for this compound: CC(C)C[P+](C)(CC(C)C)CC(C)C.Cc1ccc(S(=O)(=O)[O-])cc1 [triisobutylmethylphosphonium p-toluenesulfonate]
Reply | 32.9

Ask | Return the recorded surface tension liquid-gas value; entry: COS(=O)(=O)[O-].Cn1cc[n+](C)c1 [1,3-dimethylimidazolium methylsulfate]
Reply | 55.5

Ask | Find the measured surface tension liquid-gas of CCCC[n+]1ccc(C)cc1.F[B-](F)(F)F [1-butyl-4-methylpyridinium tetrafluoroborate] and report it.
Reply | 43.9

Ask | Answer with the recorded surface tension liquid-gas for the compound listed here: CCCCn1cc[n+](C)c1.O=S(=O)([O-])O [1-butyl-3-methylimidazolium hydrogen sulfate]
Reply | 41.7

Ask | Look up and report measured surface tension liquid-gas for this entry: CCCCCCn1cc[n+](C)c1.F[P-](F)(F)(F)(F)F [1-hexyl-3-methylimidazolium hexafluorophosphate]
Reply | 35.7

Ask | Consider the compound CCCCCCCC[n+]1ccn(C)c1.[Cl-] [1-methyl-3-octylimidazolium chloride] . State its measured surface tension liquid-gas.
Reply | 31
